Cited source for all entries: ChEMBL document CHEMBL2417545

measurement target: Alpha-1A adrenergic receptor (Rattus norvegicus, UniProt P43140)
Sequence (P43140 whole entry): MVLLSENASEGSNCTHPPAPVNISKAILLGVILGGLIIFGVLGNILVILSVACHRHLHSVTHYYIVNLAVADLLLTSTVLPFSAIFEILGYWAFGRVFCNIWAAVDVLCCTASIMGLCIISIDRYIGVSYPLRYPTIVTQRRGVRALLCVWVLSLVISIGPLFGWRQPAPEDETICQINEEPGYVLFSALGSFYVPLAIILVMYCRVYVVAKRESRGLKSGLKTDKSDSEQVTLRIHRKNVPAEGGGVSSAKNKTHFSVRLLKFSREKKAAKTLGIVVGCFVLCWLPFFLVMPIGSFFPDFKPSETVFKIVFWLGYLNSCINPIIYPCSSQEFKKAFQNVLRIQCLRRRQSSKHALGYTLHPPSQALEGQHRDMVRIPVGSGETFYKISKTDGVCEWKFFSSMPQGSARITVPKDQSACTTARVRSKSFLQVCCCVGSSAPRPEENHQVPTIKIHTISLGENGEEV
experimental details: Antagonist activity at alpha-1A adrenoreceptor in Sprague-Dawley rat prostatic vas deferens assessed as inhibition of noradrenaline-induced tissue contraction after 30 mins by Schild plot analysis
condition label: read-out: pA2 (converted)
readout type: Kb (nM)
Report the figure in nM without appending any unit label.

COc1ccc2c(c1OCCNC[C@H]1COc3ccccc3O1)OCC2.Cl	33.9
COc1ccc2c(c1OCCNC[C@H]1COc3ccccc3O1)NCC2.Cl.Cl	9.33
COc1ccc2cc[nH]c2c1OCCNC[C@H]1COc2ccccc2O1	4.9

Kb reported for this compound COc1ccc2ccoc2c1OCCNC[C@H]1COc2ccccc2O1.Cl : 5.5

====

measurement target: Alpha-1A adrenergic receptor (Rattus norvegicus, UniProt P43140)
experimental details: Antagonist activity at alpha-1A adrenoreceptor in Sprague-Dawley rat prostate assessed as inhibition of noradrenaline-induced tissue contraction after 30 mins by Schild plot analysis
Set-up: species or system Prostate gland
condition label: read-out: pA2 (converted)
Reported Kb values follow for various compounds

A selection of reference data follows.
COc1ccc2c(c1OCCNC[C@H]1COc3ccccc3O1)OCC2.Cl	13.2 nM
COc1ccc2ccoc2c1OCCNC[C@H]1COc2ccccc2O1.Cl	1.95 nM
COc1ccc2cc[nH]c2c1OCCNC[C@H]1COc2ccccc2O1	13.2 nM

Could you now look at the following compound, please?
Kb reported for this compound COc1ccc2c(c1OCCNC[C@H]1COc3ccccc3O1)NCC2.Cl.Cl : 3.63 nM

====

measurement target: Adrenergic receptor alpha-2 (Rattus norvegicus, UniProt P22086+P19328+P22909)
Sequence (P22086 whole entry): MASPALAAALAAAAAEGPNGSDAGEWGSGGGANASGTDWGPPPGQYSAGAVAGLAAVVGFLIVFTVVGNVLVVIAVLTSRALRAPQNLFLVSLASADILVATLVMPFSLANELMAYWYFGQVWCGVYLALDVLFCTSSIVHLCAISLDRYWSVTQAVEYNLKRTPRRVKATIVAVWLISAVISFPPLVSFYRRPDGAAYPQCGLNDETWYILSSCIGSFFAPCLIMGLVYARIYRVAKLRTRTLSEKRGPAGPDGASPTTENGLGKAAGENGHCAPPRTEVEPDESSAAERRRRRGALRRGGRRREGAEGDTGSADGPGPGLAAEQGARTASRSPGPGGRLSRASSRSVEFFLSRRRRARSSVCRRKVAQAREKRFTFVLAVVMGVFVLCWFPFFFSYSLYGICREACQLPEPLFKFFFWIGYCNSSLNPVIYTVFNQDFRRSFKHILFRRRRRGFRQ
Sequence (P19328 whole entry): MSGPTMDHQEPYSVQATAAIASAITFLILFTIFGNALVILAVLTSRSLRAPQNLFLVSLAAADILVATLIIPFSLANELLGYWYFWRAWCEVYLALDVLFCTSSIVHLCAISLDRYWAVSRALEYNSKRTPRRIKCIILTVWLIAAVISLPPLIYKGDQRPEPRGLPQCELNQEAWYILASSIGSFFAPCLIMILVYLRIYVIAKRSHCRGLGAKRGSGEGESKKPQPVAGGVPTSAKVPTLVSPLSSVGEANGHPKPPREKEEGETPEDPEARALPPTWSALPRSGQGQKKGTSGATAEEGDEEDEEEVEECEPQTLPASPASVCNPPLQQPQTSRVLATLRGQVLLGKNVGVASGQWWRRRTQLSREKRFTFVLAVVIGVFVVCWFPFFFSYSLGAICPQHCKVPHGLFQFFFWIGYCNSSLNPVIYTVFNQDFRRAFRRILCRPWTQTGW
Sequence (P22909 whole entry): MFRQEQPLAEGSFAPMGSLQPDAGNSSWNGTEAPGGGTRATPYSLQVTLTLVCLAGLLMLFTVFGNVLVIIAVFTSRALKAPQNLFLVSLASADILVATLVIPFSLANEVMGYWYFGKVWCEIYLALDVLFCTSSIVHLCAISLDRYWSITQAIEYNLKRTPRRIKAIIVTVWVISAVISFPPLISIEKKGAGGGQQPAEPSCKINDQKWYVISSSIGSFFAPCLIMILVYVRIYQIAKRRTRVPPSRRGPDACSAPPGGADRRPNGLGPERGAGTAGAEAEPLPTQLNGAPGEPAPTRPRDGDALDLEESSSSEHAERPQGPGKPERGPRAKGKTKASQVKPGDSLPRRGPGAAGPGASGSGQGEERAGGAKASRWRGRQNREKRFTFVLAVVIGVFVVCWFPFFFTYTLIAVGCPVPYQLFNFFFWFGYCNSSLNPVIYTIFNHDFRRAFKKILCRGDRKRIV
experimental details: Antagonist activity at alpha-2 adrenoreceptor in Sprague-Dawley rat prostatic vas deferens assessed as reversal of clonidine-inhibited twitch responses of field-stimulated prostatic portion of vas deferens after 30 mins by Schild plot analysis
Assay type: tissue-based
readout type: pA2
# respond with the number and nothing more

COc1ccc2c(c1OCCNC[C@H]1COc3ccccc3O1)OCC2.Cl	6.63
COc1ccc2c(c1OCCNC[C@H]1COc3ccccc3O1)NCC2.Cl.Cl	6.05
COc1ccc2cc[nH]c2c1OCCNC[C@H]1COc2ccccc2O1	6.09

pA2 reported for this compound COc1ccc2ccoc2c1OCCNC[C@H]1COc2ccccc2O1.Cl : 6.55

====

measurement target: 5-hydroxytryptamine receptor 1A (Rattus norvegicus)
Sequence (P19327 whole entry): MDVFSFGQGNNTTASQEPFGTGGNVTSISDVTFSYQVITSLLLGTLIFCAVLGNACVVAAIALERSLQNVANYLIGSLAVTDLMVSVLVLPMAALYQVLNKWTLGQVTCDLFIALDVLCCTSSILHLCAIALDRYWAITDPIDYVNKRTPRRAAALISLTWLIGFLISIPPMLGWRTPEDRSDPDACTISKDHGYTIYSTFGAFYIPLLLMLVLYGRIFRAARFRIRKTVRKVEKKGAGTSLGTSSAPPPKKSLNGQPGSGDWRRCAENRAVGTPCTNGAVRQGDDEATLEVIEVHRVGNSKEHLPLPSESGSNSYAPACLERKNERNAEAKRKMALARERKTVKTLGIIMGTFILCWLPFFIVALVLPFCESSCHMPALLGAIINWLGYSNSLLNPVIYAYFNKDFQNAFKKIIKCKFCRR
readout type: Ki (nM)
Report the figure in nM without appending any unit label.

A selection of reference data follows.
COc1ccc2c(c1OCCNC[C@H]1COc3ccccc3O1)NCC2.Cl.Cl	110
COc1ccc2cc[nH]c2c1OCCNC[C@H]1COc2ccccc2O1	339
COc1ccc2ccoc2c1OCCNC[C@H]1COc2ccccc2O1.Cl	2.57

Ki reported for this molecule COc1ccc2cc[nH]c2c1OCCNC[C@@H]1COc2ccccc2O1 : 1700

====

measurement target: Alpha-1D adrenergic receptor (Rattus norvegicus, UniProt P23944)
Sequence (P23944 whole entry): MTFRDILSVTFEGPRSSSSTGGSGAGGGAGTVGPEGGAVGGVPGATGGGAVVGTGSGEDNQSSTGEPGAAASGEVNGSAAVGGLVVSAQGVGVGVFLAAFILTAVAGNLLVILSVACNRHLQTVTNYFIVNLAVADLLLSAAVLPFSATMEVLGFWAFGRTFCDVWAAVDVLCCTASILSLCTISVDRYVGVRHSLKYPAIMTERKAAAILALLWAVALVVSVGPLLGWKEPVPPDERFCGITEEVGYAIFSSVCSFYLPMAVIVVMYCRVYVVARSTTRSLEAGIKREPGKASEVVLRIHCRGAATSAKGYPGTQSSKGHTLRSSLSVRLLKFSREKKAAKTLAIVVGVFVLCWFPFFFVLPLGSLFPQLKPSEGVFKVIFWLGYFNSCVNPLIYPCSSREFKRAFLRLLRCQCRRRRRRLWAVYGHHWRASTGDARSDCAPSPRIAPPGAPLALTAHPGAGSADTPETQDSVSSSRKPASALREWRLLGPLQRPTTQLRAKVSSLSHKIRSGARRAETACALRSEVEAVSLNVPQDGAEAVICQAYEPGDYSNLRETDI
experimental details: Antagonist activity at alpha-1D adrenoreceptor in Sprague-Dawley rat thoracic aorta assessed as inhibition of noradrenaline-induced tissue contraction after 30 mins by Schild plot analysis
condition label: read-out: pA2 (converted)
Reported Kb values follow for various compounds
Field: value (include unit after the number)

A selection of reference data follows.
COc1ccc2cc[nH]c2c1OCCNC[C@H]1COc2ccccc2O1	3.02 nM
COc1ccc2c(c1OCCNC[C@H]1COc3ccccc3O1)NCC2.Cl.Cl	2.4 nM
COc1ccc2c(c1OCCNC[C@H]1COc3ccccc3O1)OCC2.Cl	0.263 nM

Could you now look at the following compound, please?
Note to self: Kb of COc1ccc2ccoc2c1OCCNC[C@H]1COc2ccccc2O1.Cl with Alpha-1D adrenergic receptor (Rattus norvegicus, UniProt P23944) was 0.977 nM

====

Reported Kb values follow for various compounds
measurement target: UniProt:P15823
Sequence (P15823 whole entry): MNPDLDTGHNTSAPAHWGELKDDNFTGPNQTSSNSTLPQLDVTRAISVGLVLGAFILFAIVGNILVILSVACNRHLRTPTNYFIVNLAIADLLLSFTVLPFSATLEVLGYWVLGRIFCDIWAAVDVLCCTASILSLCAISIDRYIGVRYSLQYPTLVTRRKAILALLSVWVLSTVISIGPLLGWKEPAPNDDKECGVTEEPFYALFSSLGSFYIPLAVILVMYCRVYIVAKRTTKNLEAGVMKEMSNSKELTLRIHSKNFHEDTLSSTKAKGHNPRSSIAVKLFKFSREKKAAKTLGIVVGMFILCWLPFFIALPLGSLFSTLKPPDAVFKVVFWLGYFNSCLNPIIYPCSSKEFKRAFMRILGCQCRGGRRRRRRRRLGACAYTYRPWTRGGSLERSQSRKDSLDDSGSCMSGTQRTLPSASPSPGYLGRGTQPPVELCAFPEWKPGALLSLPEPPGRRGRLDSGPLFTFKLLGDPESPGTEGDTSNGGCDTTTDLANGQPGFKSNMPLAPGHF
experimental details: Antagonist activity at alpha-1B adrenoreceptor in Sprague-Dawley rat spleen assessed as inhibition of phenylephrine-induced tissue contraction after 30 mins by Schild plot analysis
condition label: read-out: pA2 (converted)
Report the figure in nM without appending any unit label.

COc1ccc2c(c1OCCNC[C@H]1COc3ccccc3O1)OCC2.Cl	3.24

Kb reported for this compound COc1ccc2c(c1OCCNC[C@H]1COc3ccccc3O1)NCC2.Cl.Cl : 0.832

Kb reported for this compound COc1ccc2cc[nH]c2c1OCCNC[C@H]1COc2ccccc2O1 : 17

Kb reported for this compound COc1ccc2ccoc2c1OCCNC[C@H]1COc2ccccc2O1.Cl : 2.09

====

# collection of Ki values tested on Alpha-1D adrenergic receptor (Homo sapiens)
# Sequence (P25100 whole entry): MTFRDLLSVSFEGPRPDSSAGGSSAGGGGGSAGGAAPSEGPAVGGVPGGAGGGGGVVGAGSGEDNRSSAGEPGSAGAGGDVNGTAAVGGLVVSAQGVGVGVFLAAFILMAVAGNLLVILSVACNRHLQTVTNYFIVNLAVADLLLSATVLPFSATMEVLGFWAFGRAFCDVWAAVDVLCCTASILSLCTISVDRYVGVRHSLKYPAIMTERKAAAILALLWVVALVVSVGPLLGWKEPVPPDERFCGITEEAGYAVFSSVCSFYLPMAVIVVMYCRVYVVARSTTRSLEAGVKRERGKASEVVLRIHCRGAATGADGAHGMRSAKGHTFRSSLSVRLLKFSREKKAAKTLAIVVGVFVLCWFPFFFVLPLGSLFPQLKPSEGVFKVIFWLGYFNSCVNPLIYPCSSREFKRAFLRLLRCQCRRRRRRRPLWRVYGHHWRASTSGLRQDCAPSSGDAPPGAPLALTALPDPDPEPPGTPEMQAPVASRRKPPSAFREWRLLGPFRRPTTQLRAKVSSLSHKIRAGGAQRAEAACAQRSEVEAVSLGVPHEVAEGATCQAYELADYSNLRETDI
Report the figure in nM without appending any unit label.

A selection of reference data follows.
COc1ccc2c(c1OCCNC[C@H]1COc3ccccc3O1)NCC2.Cl.Cl	12.9
COc1ccc2cc[nH]c2c1OCCNC[C@H]1COc2ccccc2O1	631
COc1ccc2ccoc2c1OCCNC[C@H]1COc2ccccc2O1.Cl	1.91

Could you now look at the following compound, please?
Note to self: Ki of COc1ccc2ccoc2c1OCCNC[C@@H]1COc2ccccc2O1 with Alpha-1D adrenergic receptor (Homo sapiens) was 18.2
